- experimentSummary: Stability of ground cannabis in Syqe cartridges stored at 30° C.
- Type: physicochemical
- conditionNotes: 30° C.±2° C., 65% RH, baseline to 6 months; one-way ANOVA
propertyName: change in phytocannabinoid amount

>>> measvalue("CCCCCc1cc(O)c(C/C=C(\\C)CCC=C(C)C)c(O)c1C(=O)O [CBGA, cannabigerolic acid]")
"decreased significantly"
>>> measvalue("CCCCCc1cc2c(c(O)c1C(=O)O)[C@@H]1C=C(C)CC[C@H]1C(C)(C)O2 (relative stereo) [THCA]")
"decreased significantly"
>>> measvalue("CCCCCc1cc(O)c2c(c1)OC(C)(C)c1ccc(C)cc1-2 [CBN, Cannabinol]")
"increased significantly"
>>> measvalue("CCCCCc1cc(O)c2c(c1)OC(C)(C)[C@@H]1CCC(C)=C[C@@H]21 [THC, (-)-Δ^9-trans-tetrahydrocannabinol]")
"increased significantly"
